B1: Syntaxin-binding protein 4, residues 493 to 538; numbered along this chain, Q6ZWJ1 (parent)
chain: LDMDCLPYGWEEAYTADGIKYFINHVTQTTSWIHPVMSVLNLSRSE

variants of: B1; experiment: abundance fitness (aPCA) (normalised: wild type 0, dead -1); higher = more abundant; growth selection in yeast, the domain comes from the species named; conditions: Homo sapiens
Metric name: abundance fitness
One number for each entry.

These solved cases illustrate the format of a correct answer.
D4A ... -0.561
P35T ... -0.686
G18D ... -0.576
Y8G ... -0.028

// each variant listed below needs its abundance fitness
1. L6N
2. M3L
3. L42H
4. P35K
5. I33H

1: -0.375; 2: -0.036; 3: 0.52; 4: -0.533; 5: -0.084

Data provenance is the Human Domainome abundance scans (Beltran et al. 2025).
